Test: Antagonist activity against PAR2 in human HT29 cells assessed as inhibition of UTP-induced Ca2+ responses pre-incubated for 30 mins before UTP stimulation by FLIPR assay

Compound Structure String	IC50 / µM
CCOC(=O)[C@H]1CCCN(C(=O)c2cn3nc(-c4ccc(F)cc4)cc(C(F)(F)F)c3n2)[C@@H]1C	4.4
